Values from PubChem BioAssay (EPA / NIEHS)

Assay: ACEA_ER_AUC_viability: ACEA Biosciences xCELLigence Real-Time Cell Analysis on Estrogen Receptor Agonism for Viability (AID 2283782);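 further: continuous compound exposure with impedance area under curve over 80 h; hit means loss of impedance signal meaning reduced cell growth or viability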
Records with an inconclusive call do not appear. Active and inactive are the calls of the source. How the source made its calls: active means hit-call score of the fitted dose curve at least 0.9, where 1 is the maximum; inconclusive means response in the unintended direction; inactive means score below 0.9.
Outcomes: t = active, f = inactive

MOLECULE: CC(C)CCCCCCCCCCCCCCC(=O)O
CLASS_LABEL: t
//
MOLECULE: CC1C2CC(CC2C2CCCC(O)C2)C1(C)C (centres undefined)
CLASS_LABEL: t
//
MOLECULE: COc1ccc(N=Nc2cc(C)c(N=Nc3ccc(S(=O)(=O)O)cc3)cc2OC)cc1
CLASS_LABEL: f
//
MOLECULE: CCc1cc(Cc2cc(CC)cc(C(C)(C)C)c2O)c(O)c(C(C)(C)C)c1
CLASS_LABEL: t
//
MOLECULE: CCCCCCCCc1ccc(S(=O)(=O)O)cc1
CLASS_LABEL: f
//
MOLECULE: COc1ccc(N)c([N+](=O)[O-])c1
CLASS_LABEL: f
//
MOLECULE: O=[N+]([O-])c1cccc(Cl)c1
CLASS_LABEL: f
//
MOLECULE: CC(=O)C(C)O (centres undefined)
CLASS_LABEL: f
//
MOLECULE: CCOC(=O)CCc1ccccc1
CLASS_LABEL: f
//
MOLECULE: CC(=O)CC(=O)Nc1ccc(C)cc1C
CLASS_LABEL: f
//
MOLECULE: C/C=C(\C)C(=O)OCCc1ccccc1
CLASS_LABEL: t
//
MOLECULE: CCc1ncc(C)[nH]1
CLASS_LABEL: f
//
MOLECULE: CC(=O)OCCCc1ccccc1
CLASS_LABEL: f
//
MOLECULE: CCCCCCCCC=CCCCCCCCC1=NCCN1CCO
CLASS_LABEL: t
